- Test system: Escherichia coli
- TEST_SUMMARY: Antibacterial activity against Escherichia coli NKE161 harboring deletion mutation in acrB protein, vector expressing tolC gene and plasmid expressing nlpE gene
- Format: functional
Entries and their measured MIC follow.
Give the value in µg/mL but do not write µg/mL after it.

Solved cases below.
INSERT INTO results (compound, metric_name, unit_tag, quantitative_result) VALUES
  ('NC(=O)OC[C@@H]1[C@H](NC(=O)/C(=N\OCC(=O)O)c2csc(N)n2)C(=O)N1S(=O)(=O)O [CARUMONAM]', 'MIC', 'µg/mL', 0.031),
  ('C[C@H]1[C@H](NC(=O)/C(=N\OC(C)(C)C(=O)O)c2csc(N)n2)C(=O)N1S(=O)(=O)O [AZTREONAM]', 'MIC', 'µg/mL', 0.063),
  ('CO[C@@H]1[C@@H](OC(N)=O)[C@@H](O)[C@H](Oc2ccc3c(O)c(NC(=O)c4ccc(O)c(CC=C(C)C)c4)c(=O)oc3c2C)OC1(C)C [NOVOBIOCIN]', 'MIC', 'µg/mL', 2);

[in] Quote MIC reported for C[C@H](CCC(=O)O)[C@H]1CC[C@H]2[C@@H]3CC[C@@H]4C[C@H](O)CC[C@]4(C)[C@H]3C[C@H](O)[C@]12C [DEOXYCHOLIC ACID] please.
[out] 156

[in] Report MIC, nothing else, for this compound: NC[C@H]1O[C@H](O[C@H]2[C@H](O)[C@@H](O[C@H]3O[C@H](CO)[C@@H](O)[C@H](N)[C@H]3O)[C@H](N)C[C@@H]2N)[C@H](O)[C@@H](O)[C@@H]1O [KANAMYCIN]
[out] 2

[in] Return reported MIC. Input compound: CCOc1ccc2ccccc2c1C(=O)N[C@@H]1C(=O)N2[C@@H]1SC(C)(C)[C@@H]2C(=O)O [NAFCILLIN]
[out] 1

====

- System: Escherichia coli
- TEST_SUMMARY: Antibacterial activity against Escherichia coli NKE159 harboring deletion mutation in acrB, cpxAR protein and plasmid expressing nlpE gene
- Format: functional
METRIC_NAME: MIC (µg/mL)
A number alone suffices; assume µg/mL.

Previously resolved entries follow.
INSERT INTO results (compound, quantitative_result) VALUES
  ('CC1(C)S[C@@H]2[C@H](NC(=O)C(c3ccccc3)S(=O)(=O)O)C(=O)N2[C@H]1C(=O)O (some centres undefined)', 1),
  ('CC1(C)S[C@@H]2[C@H](NC(=O)C(C(=O)O)c3ccccc3)C(=O)N2[C@H]1C(=O)O (some centres undefined)', 1),
  ('C[C@H](CCC(=O)O)[C@H]1CC[C@H]2[C@@H]3CC[C@@H]4C[C@H](O)CC[C@]4(C)[C@H]3C[C@H](O)[C@]12C', 2500);

Okay, next one:
[in] Specify measured MIC for C[C@H]1[C@H](NC(=O)/C(=N\OC(C)(C)C(=O)O)c2csc(N)n2)C(=O)N1S(=O)(=O)O .
[out] 0.063

====

- Test system: Escherichia coli
- TEST_SUMMARY: Antibacterial activity against Escherichia coli NKE156 harboring deletion mutation in acrB protein and vector expressing acrD gene
- Assay type: functional
Please respond with t when measured MIC is strictly beneath 1 µg/mL, and with f in all other cases.

[in] Consider the compound Cn1nnnc1SCC1=C(C(=O)O)N2C(=O)[C@@H](NC(=O)[C@H](O)c3ccccc3)[C@H]2SC1 [CEFAMANDOLE] . Is its MIC strictly less than 1 µg/mL?
[out] t

[in] Determine if NC[C@H]1O[C@H](O[C@H]2[C@H](O)[C@@H](O[C@H]3O[C@H](CO)[C@@H](O)[C@H](N)[C@H]3O)[C@H](N)C[C@@H]2N)[C@H](O)[C@@H](O)[C@@H]1O [KANAMYCIN] shows MIC strictly lower than 1 µg/mL.
[out] f

[in] Check if MIC falls below 1 µg/mL for C[C@H]1[C@H](NC(=O)/C(=N\OC(C)(C)C(=O)O)c2csc(N)n2)C(=O)N1S(=O)(=O)O [AZTREONAM] .
[out] t

[in] Is the reported MIC for CO[C@@H]1[C@@H](OC(N)=O)[C@@H](O)[C@H](Oc2ccc3c(O)c(NC(=O)c4ccc(O)c(CC=C(C)C)c4)c(=O)oc3c2C)OC1(C)C [NOVOBIOCIN] strictly below 1 µg/mL?
[out] f

[in] Input Cc1onc(-c2ccccc2)c1C(=O)N[C@@H]1C(=O)N2[C@@H]1SC(C)(C)[C@@H]2C(=O)O [OXACILLIN] ; condition: MIC strictly below 1 µg/mL. Does it hold?
[out] t
